Where these numbers come from: patent US20160045531A1

Test system: MOLM-13 (MLL-AF9)
Experimental Protocol: Proliferation assay and calculation of synergism (Example 5), MOLM-13
Format: cell-based, human
Reported Conditions: 7 Day Cotreatment Model; Chou-Talalay CI
Outcome Measure: Combination with Compound A2, MOLM-13 (MLL-AF9)

{"columns": ["Molecule", "Tgt", "Value Observed"],
 "data": [
  ["CC(C)C[C@H](NC(=O)[C@H](Cc1ccccc1)NC(=O)c1cnccn1)B(O)O", "MOLM-13 (MLL-AF9)", "Combination Benefit"],
  ["Nc1cccc2c1CN(C1CCC(=O)NC1=O)C2=O (centres unmarked) [Lenalidomide, lenalidomide]", "MOLM-13 (MLL-AF9)", "Combination Benefit"]
]}
